Assay: VP16 transactivation inhibitors, counter-screen for SRC1 inhibitor project, cell-based, luminescence, high throughput (AID 588824)
Details: cell-based VP16 transactivation luciferase luminescence; at 3.6 µM; stronger effect = higher value
measured property: inhibition (%)
Record the value in %, omitting the unit from your answer.

- CCOC(=O)c1c(NC(=O)COc2ccccc2C#N)sc2c1CC(C)(C)NC2(C)C: -13.1

// lookup inhibition for O=C(O)c1ccccc1C(=O)Nc1ccc(Oc2cccc3ccccc23)cc1
21.7

// lookup inhibition for CCN1CCN(c2ccc(Nc3ccnc4ccccc34)cc2)CC1
42.5

// lookup inhibition for CNc1ccc2ncc(-c3cccc(C(=O)N(C)C)c3)n2n1
60.8

// lookup inhibition for CC1(C)CC(N2CCCC2)=CC(=[N+]2CCCCCC2)C1
52.1

// lookup inhibition for CCOC(=O)N1CCN(C(=O)c2cc(-c3ccncc3)nc3ccccc23)CC1
3.82

###

// inhibition lookup, one value per entry
Assay: StAR promoter reporter inhibitors, counter-screen for LRH-1 inverse agonist project, cell-based, luminescence, high throughput (AID 651611)
Conditions: StAR promoter luciferase reporter counterscreen, at 3.6 µM, stronger effect = higher value
Record the value in %, omitting the unit from your answer.

Recorded results for 5 molecules are shown here.
• O=[N+]([O-])c1cc2ncccc2c2ncccc12 = 42.1
• COc1ccc(CCNC(=O)CSc2nnc(CNc3ccc(Cl)cc3)o2)cc1OC = 1.3
• COc1ccc(-c2nnnn2-c2ccccc2OC)cc1 = 8.71
• CCCCCC[n+]1ccccc1/C=C/c1ccc(N(C)C)cc1 = 81.5
• CCn1c2ccccc2c2cc(/C=N/n3cnnc3)ccc21 = -4.6

// lookup inhibition for Cc1sc2ncnc(NCCc3ccc(S(N)(=O)=O)cc3)c2c1C
14.7

###

Experiment: VP16 transactivation reporter inhibitors, counter-screen for LRH-1 inverse agonist project, cell-based, luminescence, high throughput (AID 651615)
Details: Gal4-VP16 luciferase reporter cells, at 3.6 µM, stronger effect = higher value
// inhibition lookup, one value per entry
Record the value in %, omitting the unit from your answer.

Recorded results for 4 compounds are shown here.
• CC(=O)Nc1cc(-c2cccc(F)c2)cn2c(-c3ccc(S(C)(=O)=O)cc3)cnc12 = -14.3
• CN(C)c1nnnn1-c1cccc(Oc2ncc(C(F)(F)F)cc2Cl)c1 = -5.85
• O=C(Cc1c(F)cccc1Cl)Nc1ccncc1 = -7.58
• CCCOc1ccc(N)cc1N = -3.38

// lookup inhibition for Cc1ccc(S(=O)(=O)/C(=C/Cl)NC(=O)c2ccccc2)cc1
38.8

// lookup inhibition for O=C(CN1C(=O)NC2(CCCCC2)C1=O)NCCc1c[nH]c2ccccc12
3.42

###

Tested on: transactivating tegument protein VP16 (Human herpesvirus 1), Gal4-VP16 luciferase reporter
Assay: VP16 transactivation inhibitors, counter-screen for SRC3 inhibitor project, cell-based, luminescence, high throughput (AID 588794)
Settings: mammalian cells, VP16-driven luciferase reporter luminescence; at 3.6 µM; stronger effect = higher value
Activity calls are given as the source filed them. Cut-off read from the data, not from the text of the source: active = inhibition above about 30%; inactive = the rest.
// inhibition lookup, one value per entry

Recorded results for 6 molecules are shown here.
* CN(C(=O)COC(=O)/C=C/c1cccc([N+](=O)[O-])c1)C1CCS(=O)(=O)C1 (stereo not drawn) | 32.4% (active)
* C#CC[N+](C)(C)CCCCCCCCCC | 23.2% (inactive)
* Cc1cc(C(=O)Nc2ccc(Cl)cc2)c(C)n1-c1ccccc1 | 69.7% (active)
* C/C(=N\NC(=O)C1COc2ccccc2O1)c1ccccn1 (stereo not drawn) | 19.6% (inactive)
* O=C(N/N=C/c1cc(Cl)cc(Cl)c1O)c1ccncc1 | 40.9% (active)
* Cc1ccccc1NC1=NCC(c2ccc([N+](=O)[O-])cc2)S1 (stereo not drawn) | -2.52% (inactive)

// lookup inhibition for Nc1ccc2c(c1)C(=O)C(=O)c1ccccc1-2
95.3% (active)

// lookup inhibition for CCN1CCN(/C=N/c2nc3c(s2)CCCC3)CC1
-9.09% (inactive)

###

Assay: VP16 transactivation inhibitors, counter-screen for SRC1 inhibitor project, cell-based, luminescence, high throughput (AID 588824)
Settings: cell-based VP16 transactivation luciferase luminescence; at 3.6 µM
Calls of active or inactive are those of the source. Rule as the data show it: active = inhibition above about 25%; inactive = the rest.
Form entry, call: pick from active, inactive

Look over these answered cases.
* COc1ccc(CCN2C(=O)C3C4C=CC(C3C2=O)C2C(=O)N(CCc3ccc(OC)c(OC)c3)C(=O)C42)cc1OC (configuration not stated) | inactive
* N=c1c2c(n(Cc3ccc(F)cc3)c3c1CCC3)CCC2 | active

Lab log entry: CCN(CC)c1ccc(C=Nc2cc(C)ccc2C)c(O)c1 — outcome as called in the assay?
inactive

Lab log entry: CC1CC(C)CN(c2ncc3c(n2)CC(c2ccc(Cl)cc2)CC3=O)C1 (configuration not stated) — outcome as called in the assay?
inactive

Lab log entry: Cc1ccc(-c2cn(-c3ccccc3)c3[n+]2CCCS3)cc1 — outcome as called in the assay?
inactive

Lab log entry: COc1ccc2cc3cc(C(=O)Nc4cc(OC)c(OC)c(OC)c4)oc3nc2c1 — outcome as called in the assay?
active

Lab log entry: O=C(Nc1nc(-c2ccccc2)cs1)C1CCCN(S(=O)(=O)c2ccccc2)C1 (configuration not stated) — outcome as called in the assay?
inactive

Lab log entry: COc1cc2c(cc1NC(=O)/C=C/c1cc(OC)c(OC)c(OC)c1)oc1ccccc12 — outcome as called in the assay?
inactive

Lab log entry: Cc1sc2ncnc(N3CCC(C(=O)Nc4ccccc4C(C)(C)C)CC3)c2c1C — outcome as called in the assay?
active

Lab log entry: c1csc(CNc2ccc3c(c2)OCCO3)c1 — outcome as called in the assay?
inactive

Lab log entry: COc1ccc(CN2CCN(C(=O)CCC(=O)Nc3nnc(C(F)(F)F)s3)CC2)cc1F — outcome as called in the assay?
inactive

Lab log entry: CCC(C)c1ccc(S(=O)(=O)Nc2cccnc2)cc1 (configuration not stated) — outcome as called in the assay?
inactive

Lab log entry: Cc1nc2c(O)c3c(c(O)c2nc1C)C1C=CC3CC1 — outcome as called in the assay?
active

Lab log entry: O=c1[nH]cnc2sc3c(c12)CCCCC3 — outcome as called in the assay?
inactive

Lab log entry: OCCCNc1cc(-c2ccnc(Nc3cccc(Cl)c3)n2)ccn1 — outcome as called in the assay?
active

Lab log entry: O=C(N/N=C/c1sc(N2CCOCC2)nc1-c1ccccc1)c1cccc(S(=O)(=O)N2CCCC2)c1 — outcome as called in the assay?
active

Lab log entry: Cc1cccc(N2CCN(S(=O)(=O)c3cc(-c4cc(C)no4)ccc3C)CC2C)c1 (configuration not stated) — outcome as called in the assay?
active

Lab log entry: Cc1nnc(SCC(=O)N2CCC(c3noc4ccc(F)cc34)CC2)s1 — outcome as called in the assay?
active

###

Assay: VP16 transactivation reporter inhibitors, counter-screen for LRH-1 inverse agonist project, cell-based, luminescence, high throughput (AID 651615)
Details: Gal4-VP16 luciferase reporter cells, at 3.6 µM
Activity calls are given as the source filed them. Rule as the data show it: active = inhibition above about 33%; inactive = the rest.
Form entry, call: pick from 1 (yes) (active), 0 (no) (inactive)

Look over these answered cases.
- O=C(c1ccoc1)N1CCN(c2cc(-c3ccco3)nc3cc(-c4ccccc4)nn23)CC1: 0 (no)
- COc1ccc(OC)c(NS(=O)(=O)c2ccc(SC)cc2)c1: 0 (no)
- O=C(Nc1sc2c(c1C(=O)O)CCCCC2)c1ccccc1: 1 (yes)
- COc1ccc(CNC(=O)c2cccc3c(-c4cccnc4)coc23)cc1OC: 1 (yes)
- CC(=O)c1cccc(N=c2scc(-c3ccc(S(=O)(=O)N4CCOCC4)cc3)n2CCO)c1: 1 (yes)

Lab log entry: CN(C)c1ccc(/C=C/c2ccc3ccccc3[n+]2C)cc1 — outcome as called in the assay?
1 (yes)

###

Target: Nuclear receptor subfamily 5 group A member 2 (Homo sapiens) (UniProt O00482)
Sequence (O00482 whole entry, looked up): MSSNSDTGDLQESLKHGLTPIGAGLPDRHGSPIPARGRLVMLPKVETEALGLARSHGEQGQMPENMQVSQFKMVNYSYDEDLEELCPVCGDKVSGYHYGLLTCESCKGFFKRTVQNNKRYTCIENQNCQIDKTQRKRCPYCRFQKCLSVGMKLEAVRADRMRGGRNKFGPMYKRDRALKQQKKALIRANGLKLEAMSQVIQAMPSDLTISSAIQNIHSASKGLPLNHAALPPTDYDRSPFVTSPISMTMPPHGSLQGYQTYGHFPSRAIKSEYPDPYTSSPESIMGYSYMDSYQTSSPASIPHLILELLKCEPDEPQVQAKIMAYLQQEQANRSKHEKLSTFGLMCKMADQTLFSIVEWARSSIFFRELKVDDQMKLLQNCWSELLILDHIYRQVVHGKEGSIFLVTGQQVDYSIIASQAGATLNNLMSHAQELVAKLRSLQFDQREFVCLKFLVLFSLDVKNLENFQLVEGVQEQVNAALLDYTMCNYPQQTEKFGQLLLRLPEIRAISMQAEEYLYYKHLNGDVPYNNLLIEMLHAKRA
Experiment: LRH-1 (NR5A2) inverse agonists, retest, confirmation, cell-based, luminescence (AID 651613);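 note: HEK293T cells co-transfected with LRH-1 and StAR promoter luciferase reporter; 0% = vehicle wells and 100% = parental cells lacking receptor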
Details: cell-based LRH-1 luciferase reporter, inverse agonism; at 3.6 µM
Activity calls are given as the source filed them. Rule as the data show it: active = inhibition above about 42%; inactive = the rest.
Form entry, call: pick from active, inactive

Look over these answered cases.
• Cc1ccc(Cn2cnc3ccccc32)cc1C = inactive
• Nc1ccc2oc(-c3cc(Br)ccc3Cl)nc2c1 = active
• COc1ccc(S(=O)(=O)N2CCCCC2)cc1NC(=O)c1ccc([N+](=O)[O-])o1 = active
• Cc1no[n+]([O-])c1COc1ccc(/C=C2\NC(=S)NC2=O)cc1 = active
• O=C(CCl)Nc1ccc2c(c1)OCO2 = active

Lab log entry: Cc1nn(-c2ccccc2Cl)c(Cl)c1/C=N/Nc1nc2ccccc2s1 — outcome as called in the assay?
inactive

Lab log entry: Cc1ccc(/C=C/S(=O)(=O)NCC(=O)OCC(=O)Nc2c(F)cccc2F)cc1 — outcome as called in the assay?
active

Lab log entry: NC(=O)c1cc2ccncc2c2ccccc12 — outcome as called in the assay?
active

Lab log entry: N=C1C=CC(=C(c2ccc(N)cc2)c2ccc(N)cc2)C=C1 — outcome as called in the assay?
active

Lab log entry: Cc1ccc(Nc2nc(N)nc(CCl)n2)c(C)c1 — outcome as called in the assay?
active

Lab log entry: Cc1cc(S(=O)(=O)NCc2ccncc2)c(C)cc1Br — outcome as called in the assay?
inactive

Lab log entry: COc1cc(C)c(Br)cc1S(=O)(=O)NCc1ccncc1 — outcome as called in the assay?
active
